- Assayed System: Nucleotide-binding oligomerization domain-containing protein 1 (Homo sapiens)
- Sequence (whole entry): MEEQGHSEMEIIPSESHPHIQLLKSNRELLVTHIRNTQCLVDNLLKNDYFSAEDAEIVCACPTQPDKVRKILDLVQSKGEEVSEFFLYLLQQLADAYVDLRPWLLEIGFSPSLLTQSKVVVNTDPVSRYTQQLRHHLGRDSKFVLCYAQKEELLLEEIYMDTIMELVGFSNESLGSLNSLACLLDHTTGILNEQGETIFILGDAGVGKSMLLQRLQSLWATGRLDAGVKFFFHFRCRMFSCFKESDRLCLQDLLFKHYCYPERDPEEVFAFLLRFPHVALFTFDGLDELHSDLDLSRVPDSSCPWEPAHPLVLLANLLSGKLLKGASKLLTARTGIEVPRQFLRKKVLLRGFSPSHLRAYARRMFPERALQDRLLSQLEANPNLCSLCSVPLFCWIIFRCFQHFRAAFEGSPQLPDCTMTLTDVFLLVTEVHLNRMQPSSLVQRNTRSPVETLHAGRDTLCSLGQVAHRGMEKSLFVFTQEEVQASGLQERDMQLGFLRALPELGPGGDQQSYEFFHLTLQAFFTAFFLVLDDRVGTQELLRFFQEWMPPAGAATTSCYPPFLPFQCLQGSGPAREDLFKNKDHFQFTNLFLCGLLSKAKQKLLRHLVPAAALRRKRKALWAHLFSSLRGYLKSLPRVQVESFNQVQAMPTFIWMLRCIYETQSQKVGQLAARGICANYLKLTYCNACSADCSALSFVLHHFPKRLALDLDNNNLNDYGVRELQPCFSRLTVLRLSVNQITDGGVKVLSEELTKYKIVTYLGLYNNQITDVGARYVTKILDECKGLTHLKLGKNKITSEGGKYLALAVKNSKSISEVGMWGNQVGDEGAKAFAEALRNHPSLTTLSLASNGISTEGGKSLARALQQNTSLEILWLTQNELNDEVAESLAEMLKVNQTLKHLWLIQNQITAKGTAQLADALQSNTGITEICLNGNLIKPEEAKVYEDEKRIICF
- Experimental Details: Antagonist activity at NOD1 in HEK-Blue hNOD1 cells assessed as inhibition of C12-iE-DAP-induced NFkappaB activation-mediated SEAP release at 5 uM preincubated for 3 hrs followed by C12-iE-DAP addition and measured after 20 hrs by spectrophotometric method relative to control
- Assay type: cell-based
- Condition Details: filed as antagonist, time 23.0 hrs
Metric: inhibition (%)
Write it as a number; the unit % goes unstated.

Molecule: COC(=O)Cn1cnc2cc(NC(=O)COCc3ccc(C#N)cc3)c(Oc3cccc(N(C)C)c3)cc2c1=O
Unit Descriptor: %
Data Value: 55.7

Kindly note the recorded inhibition for `COC(=O)Cn1cnc2cc(NC(=O)COCc3ccc(C(F)(F)F)cc3)c(Oc3ccccc3)cc2c1=O` , which is 50.2

Entry `COC(=O)Cn1cnc2cc(NC(=O)COCc3ccc(C(F)(F)F)cc3)c(Oc3ccccc3N(C)C)cc2c1=O` — recorded inhibition = 87.9

Item: `COC(=O)Cn1cnc2cc(NC(=O)CCCOc3ccc(C#N)cc3)c(Oc3cccc(N(C)C)c3)cc2c1=O` | inhibition: 48

response.value for `CN(C)c1cccc(Oc2cc3c(=O)n(CC(=O)N4CCCCC4)cnc3cc2NC(=O)COCc2ccc(C(F)(F)F)cc2)c1` (field: inhibition) = 87.5

Noted for `COC(=O)Cn1cnc2cc(C(=O)NCCOCc3ccc(C(F)(F)F)cc3)c(-c3cccc(F)c3)cc2c1=O` : its inhibition reads 64

`COC(=O)Cn1cnc2cc(NC(=O)CCCOc3ccc(C(F)(F)F)cc3)c(Oc3cccc(N(C)C)c3)cc2c1=O` has a reported inhibition of 70.9

inhibition reading for `O=C(COCc1ccc(C(F)(F)F)cc1)Nc1cc2ncn(CC(=O)N3CCCC(F)(F)C3)c(=O)c2cc1Oc1cccc(N2CCOCC2)c1` : 88.2

Looking up `COC(=O)Cn1cnc2cc(C(=O)NCCOCc3ccc(C(F)(F)F)cc3)c(-c3cccc(Cl)c3)cc2c1=O` , I found its inhibition recorded as 82.4

Data point: `CN(C)c1cccc(Oc2cc3c(=O)n(CC(=O)N4CCCC(F)(F)C4)cnc3cc2NC(=O)COCc2ccc(C(F)(F)F)cc2)c1` ; inhibition = 90.4

The molecule listed as `O=C(NCCCOc1ccc(C(F)(F)F)cc1)c1cc2ncn(CC(=O)N3CCCCC3)c(=O)c2cc1-c1cccc(Cl)c1` shows inhibition equal to 93.2

# molecule `COC(=O)Cn1cnc2cc(NC(=O)COCc3ccccc3)c(Oc3cccc(N(C)C)c3)cc2c1=O` ; its inhibition = 47.6
